Values compiled from the supplement of paper PMC5998384.

- System: HeLa Kyoto;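 also: HeLa Kyoto cells synchronized by double thymidine or nocodazole block, proteins quantified by TMT10plex mass spectrometry, three independent biological replicates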
- ASSAY DETAILS: melting temperature (median over replicates), in situ; higher = more thermally stable
- REPORTED CONDITIONS: cell cycle stage: G1/S
TEST READOUT: melting temperature (°C)
Your answer should be a plain number; it is taken to be in °C.

Suppose we examine the sequence MAAPAPGLISVFSSSQELGAALAQLVAQRAACCLAGARARFALGLSGGSLVSMLARELPAAVAPAGPASLARWTLGFCDERLVPFDHAESTYGLYRTHLLSRLPIPESQVITINPELPVEEAAEDYAKKLRQAFQGDSIPVFDLLILGVGPDGHTCSLFPDHPLLQEREKIVAPISDSPKPPPQRVTLTLPVLNAARTVIFVATGEGKAAVLKRILEDQEENPLPAALVQPHTGKLCWFLDEAAARLLTVPFEKHSTL [PGLS] ; what melting temperature value has been reported? 54.8

Need melting temperature, item MLGIWTLLPLVLTSVARLSSKSVNAQVTDINSKGLELRKTVTTVETQNLEGLHHDGQFCHKPCPPGERKARDCTVNGDEPDCVPCQEGKEYTDKAHFSSKCRRCRLCDEGHGLEVEINCTRTQNTKCRCKPNFFCNSTVCEHCDPCTKCEHGIIKECTLTSNTKCKEEGSRSNLGWLCLLLLPIPLIVWVKRKEVQKTCRKHRKENQGSHESPTLNPETVAINLSDVDLSKYITTIAGVMTLSQVKGFVRKNGVNEAKIDEIKNDNVQDTAEQKVQLLRNWHQLHGKKEAYDTLIKDLKKANLCTLAEKIQTIILKDITSDSENSNFRNEIQSLV [FAS] 54.1

What does the record list as melting temperature for MAAAGARPVELGFAESAPAWRLRSEQFPSKVGGRPAWLGAAGLPGPQALACELCGRPLSFLLQVYAPLPGRPDAFHRCIFLFCCREQPCCAGLRVFRNQLPRKNDFYSYEPPSENPPPETGESVCLQLKSGAHLCRVCGCLGPKTCSRCHKAYYCSKEHQTLDWRLGHKQACAQPDHLDHIIPDHNFLFPEFEIVIETEDEIMPEVVEKEDYSEIIGSMGEALEEELDSMAKHESREDKIFQKFKTQIALEPEQILRYGRGIAPIWISGENIPQEKDIPDCPCGAKRILEFQVMPQLLNYLKADRLGKSIDWGILAVFTCAESCSLGTGYTEEFVWKQDVTDTP [PDCD2] ? 48.5

Which melting temperature value belongs to MGPRARPALLLLMLLQTAVLQGRLLRSHSLHYLFMGASEQDLGLSLFEALGYVDDQLFVFYDHESRRVEPRTPWVSSRISSQMWLQLSQSLKGWDHMFTVDFWTIMENHNHSKESHTLQVILGCEMQEDNSTEGYWKYGYDGQDHLEFCPDTLDWRAAEPRAWPTKLEWERHKIRARQNRAYLERDCPAQLQQLLELGRGVLDQQVPPLVKVTHHVTSSVTTLRCRALNYYPQNITMKWLKDKQPMDAKEFEPKDVLPNGDGTYQGWITLAVPPGEEQRYTCQVEHPGLDQPLIVIWEPSPSGTLVIGVISGIAVFVVILFIGILFIILRKRQGSRGAMGHYVLAERE [HFE] ? 55.9

I have this sequence here, MGARASGGPLARAGLLLLLLLLLLLGLLAPGAQGARGRGGAEKNSYRRTVNTFSQSVSSLFGEDNVRAAQKFLARLTERFVLGVDMFVETLWKVWTELLDVLGLDVSNLSQYFSPASVSSSPARALLLVGVVLLAYWFLSLTLGFTFSVLHVVFGRFFWIVRVVLFSMSCVYILHKYEGEPENAVLPLCFVVAVYFMTGPMGFYWRSSPSGPSNPSNPSVEEKLEHLEKQVRLLNIRLNRVLESLDRSKDK [BRI3BP] , and I need its recorded melting temperature. 55.1
